Data origin, for the record: ChEMBL document CHEMBL5143597

test: Drug distribution in C57BL/6 mouse plasma 10 mg/kg, po and measured at 2 hrs post dose by LC-MS/MS analysis; format: ADME, organism-based
metric: concentration at 2 h (nM)
Answers are plain numbers, in nM.

O=C(Nc1ccc(C2CCC3(CC2)CC(C(=O)O)C3)cc1)c1nnc(Nc2ccc(F)c(F)c2)o1 (centres undefined)
1660
O=C(Nc1ccc(N2CCC3(CC2)CC(C(=O)O)C3)nc1)c1nnc(Nc2ccc(F)c(F)c2)o1
1160
O=C(O)CC1CCC2(CC1)CCN(c1ccc(NC(=O)c3nnc(Nc4ccc(F)c(F)c4)o3)cn1)CC2
1460

Proceed to the following item.
# concentration at 2 h of O=C(O)CC1CCC2(CC1)CCC(c1ccc(NC(=O)c3nnc(Nc4ccc(F)c(F)c4)o3)cn1)CC2 (centres undefined) = 1860

----------
experiment: AUC in C57BL/6 mouse at 3 mg/kg, iv or 10 mg/kg, po and measured up to 24 hrs by LC-MS/MS analysis; format: ADME, organism-based; parameters: time < 24 hrs, dose 3 mg/kg, route iv; conditions: in vivo
Could you please report measured AUC at 24 h for the items listed next?
Numbers only, in µM·h.

Example compounds with recorded AUC at 24 h:
O=C(O)CC1CCC2(CC1)CCC(c1ccc(NC(=O)c3nnc(Nc4ccc(F)c(F)c4)o3)cn1)CC2 (stereo not drawn)
4.4
O=C(O)CC1CCC2(CC1)CCN(c1ccc(NC(=O)c3nnc(Nc4ccc(F)c(F)c4)o3)cn1)CC2
1.6

# AUC at 24 h of O=C(Nc1ccc(C2CCC3(CC2)CC(C(=O)O)C3)cc1)c1nnc(Nc2ccc(F)c(F)c2)o1 (stereo not drawn) = 2.8

----------
assay: Drug distribution in C57BL/6 mouse plasma 10 mg/kg, po and measured at 8 hrs post dose by LC-MS/MS analysis; assay type: ADME, organism-based
Could you please report measured concentration at 8 h for the items listed next?
Numbers only, in nM.

Example molecules with recorded concentration at 8 h:
O=C(Nc1ccc(C2CCC3(CC2)CC(C(=O)O)C3)cc1)c1nnc(Nc2ccc(F)c(F)c2)o1 (centres undefined)
360
O=C(O)CC1CCC2(CC1)CCN(c1ccc(NC(=O)c3nnc(Nc4ccc(F)c(F)c4)o3)cn1)CC2
60
O=C(Nc1ccc(N2CCC3(CC2)CC(C(=O)O)C3)nc1)c1nnc(Nc2ccc(F)c(F)c2)o1
40

Proceed to the following item.
# concentration at 8 h of O=C(O)CC1CCC2(CC1)CCC(c1ccc(NC(=O)c3nnc(Nc4ccc(F)c(F)c4)o3)cn1)CC2 (centres undefined) = 80

----------
Could you please report measured solubility at 4 h for the items listed next?
test: Solubility of compound in PBS at pH 9 incubated for 4 hrs under shaking condition by UV absorbance based analysis; format: physicochemical
Give bare numbers, in µM.

O=C([O-])CC1CCC2(CC1)CCC(c1ccc(NC(=O)c3nnc(Nc4ccc(F)c(F)c4)o3)cn1)CC2.[Na+] (centres undefined)
9

Provide the reported solubility at 4 h of each entry below, same order.
1. O=C(Nc1ccc(N2CCC3(CC2)CC(C(=O)[O-])C3)nc1)c1nnc(Nc2ccc(F)c(F)c2)o1.[Na+]
2. O=C([O-])CC1CCC2(CC1)CCC(c1ccc(NC(=O)c3nnc(Nc4ccc(F)c(F)c4)o3)cc1)CC2.[Na+] (centres undefined)

1: 723; 2: 17

----------
biological target: CYP3A4 (Homo sapiens, UniProt P08684); assay: Inhibition of recombinant human CYP3A4 at 25 uM by fluorescence plate reader analysis; type: ADME
Sequence (P08684 whole entry): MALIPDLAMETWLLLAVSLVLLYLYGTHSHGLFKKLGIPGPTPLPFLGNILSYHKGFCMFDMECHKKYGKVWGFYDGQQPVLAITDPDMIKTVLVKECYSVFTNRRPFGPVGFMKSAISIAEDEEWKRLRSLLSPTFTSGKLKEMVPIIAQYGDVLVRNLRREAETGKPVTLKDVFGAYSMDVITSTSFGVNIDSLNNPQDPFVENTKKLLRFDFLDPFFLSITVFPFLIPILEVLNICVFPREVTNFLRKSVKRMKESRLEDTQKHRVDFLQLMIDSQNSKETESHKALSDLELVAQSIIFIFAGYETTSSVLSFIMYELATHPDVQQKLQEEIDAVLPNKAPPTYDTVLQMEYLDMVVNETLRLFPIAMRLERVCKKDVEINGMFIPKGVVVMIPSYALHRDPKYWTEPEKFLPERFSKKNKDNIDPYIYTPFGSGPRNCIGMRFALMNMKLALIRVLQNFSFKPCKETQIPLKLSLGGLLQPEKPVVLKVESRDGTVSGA
Could you please report measured inhibition at 25 µM for the items listed next?

Example molecules with recorded inhibition at 25 µM:
O=C([O-])CC1CCC2(CC1)CCC(c1ccc(NC(=O)c3nnc(Nc4ccc(F)c(F)c4)o3)cn1)CC2.[Na+] (stereo not given)
17%
O=C(Nc1ccc(C2CCC3(CC2)CC(C(=O)O)C3)cc1)c1nnc(Nc2ccc(F)c(F)c2)o1 (stereo not given)
16%
O=C([O-])CC1CCC2(CC1)CCN(c1ccc(NC(=O)c3nnc(Nc4ccc(F)c(F)c4)o3)cn1)CC2.[Na+]
12%
O=C([O-])CC1CCC2(CC1)CCC(c1ccc(NC(=O)c3nnc(Nc4ccc(F)c(F)c4)o3)cc1)CC2.[Na+] (stereo not given)
5%

Proceed to the following item.
# inhibition at 25 µM of `O=C(Nc1ccc(N2CCC3(CC2)CC(C(=O)[O-])C3)nc1)c1nnc(Nc2ccc(F)c(F)c2)o1.[Na+]` = 10%

----------
experiment: Drug distribution in C57BL/6 mouse liver 10 mg/kg, po and measured at 8 hrs post dose by LC-MS/MS analysis; type: ADME, organism-based; details: read-out: Ct
Could you please report measured concentration at 8 h for the items listed next?
Numbers only, in µM.

Example compounds with recorded concentration at 8 h:
O=C(Nc1ccc(N2CCC3(CC2)CC(C(=O)O)C3)nc1)c1nnc(Nc2ccc(F)c(F)c2)o1
5.3
O=C(O)CC1CCC2(CC1)CCN(c1ccc(NC(=O)c3nnc(Nc4ccc(F)c(F)c4)o3)cn1)CC2
22.2
O=C(O)CC1CCC2(CC1)CCC(c1ccc(NC(=O)c3nnc(Nc4ccc(F)c(F)c4)o3)cn1)CC2 (centres undefined)
28

Proceed to the following item.
# concentration at 8 h of O=C(Nc1ccc(C2CCC3(CC2)CC(C(=O)O)C3)cc1)c1nnc(Nc2ccc(F)c(F)c2)o1 (centres undefined) = 17.8

----------
test: Drug distribution in C57BL/6 mouse skeletal muscle 10 mg/kg, po and measured at 1 hrs post dose by LC-MS/MS analysis; type: ADME, organism-based, Skeletal muscle tissue; conditions: read-out: Ct
metric: concentration at 1 h (nM)
Give bare numbers, in nM.

Provide the reported concentration at 1 h of each entry below, same order.
1. O=C(O)CC1CCC2(CC1)CCC(c1ccc(NC(=O)c3nnc(Nc4ccc(F)c(F)c4)o3)cn1)CC2 (centres undefined)
2. O=C(Nc1ccc(C2CCC3(CC2)CC(C(=O)O)C3)cc1)c1nnc(Nc2ccc(F)c(F)c2)o1 (centres undefined)
3. O=C(Nc1ccc(N2CCC3(CC2)CC(C(=O)O)C3)nc1)c1nnc(Nc2ccc(F)c(F)c2)o1
4. O=C(O)CC1CCC2(CC1)CCN(c1ccc(NC(=O)c3nnc(Nc4ccc(F)c(F)c4)o3)cn1)CC2

1: 520; 2: 160; 3: 170; 4: 100

----------
assay: Volume of distribution at steady state in Wistar rat at 3 mg/kg, iv or 10 mg/kg, po and measured up to 24 hrs by LC-MS/MS analysis; format: ADME, organism-based; settings: in vivo, read-out: Vdss
metric: Vd (L/kg)
One number for each entry, in L/kg.

O=C(Nc1ccc(N2CCC3(CC2)CC(C(=O)O)C3)nc1)c1nnc(Nc2ccc(F)c(F)c2)o1
0.3
O=C(O)CC1CCC2(CC1)CCN(c1ccc(NC(=O)c3nnc(Nc4ccc(F)c(F)c4)o3)cn1)CC2
0.6
O=C(O)CC1CCC2(CC1)CCC(c1ccc(NC(=O)c3nnc(Nc4ccc(F)c(F)c4)o3)cn1)CC2 (centres undefined)
0.5

Proceed to the following item.
# Vd of O=C(Nc1ccc(C2CCC3(CC2)CC(C(=O)O)C3)cc1)c1nnc(Nc2ccc(F)c(F)c2)o1 (centres undefined) = 0.53

----------
Could you please report measured inhibition at 2 h, 30 µM for the items listed next?
target: hERG (KCNH2) (Homo sapiens); assay: Displacement of [3H]astemizole from human ERG expressed in HEK293 cell membrane at 30 uM for 2 hrs by Radiometric displacement assay; type: toxicity; settings: HEK293 cell membranes that express hERG, probe [3H]astemizole
Sequence (Q12809 whole entry): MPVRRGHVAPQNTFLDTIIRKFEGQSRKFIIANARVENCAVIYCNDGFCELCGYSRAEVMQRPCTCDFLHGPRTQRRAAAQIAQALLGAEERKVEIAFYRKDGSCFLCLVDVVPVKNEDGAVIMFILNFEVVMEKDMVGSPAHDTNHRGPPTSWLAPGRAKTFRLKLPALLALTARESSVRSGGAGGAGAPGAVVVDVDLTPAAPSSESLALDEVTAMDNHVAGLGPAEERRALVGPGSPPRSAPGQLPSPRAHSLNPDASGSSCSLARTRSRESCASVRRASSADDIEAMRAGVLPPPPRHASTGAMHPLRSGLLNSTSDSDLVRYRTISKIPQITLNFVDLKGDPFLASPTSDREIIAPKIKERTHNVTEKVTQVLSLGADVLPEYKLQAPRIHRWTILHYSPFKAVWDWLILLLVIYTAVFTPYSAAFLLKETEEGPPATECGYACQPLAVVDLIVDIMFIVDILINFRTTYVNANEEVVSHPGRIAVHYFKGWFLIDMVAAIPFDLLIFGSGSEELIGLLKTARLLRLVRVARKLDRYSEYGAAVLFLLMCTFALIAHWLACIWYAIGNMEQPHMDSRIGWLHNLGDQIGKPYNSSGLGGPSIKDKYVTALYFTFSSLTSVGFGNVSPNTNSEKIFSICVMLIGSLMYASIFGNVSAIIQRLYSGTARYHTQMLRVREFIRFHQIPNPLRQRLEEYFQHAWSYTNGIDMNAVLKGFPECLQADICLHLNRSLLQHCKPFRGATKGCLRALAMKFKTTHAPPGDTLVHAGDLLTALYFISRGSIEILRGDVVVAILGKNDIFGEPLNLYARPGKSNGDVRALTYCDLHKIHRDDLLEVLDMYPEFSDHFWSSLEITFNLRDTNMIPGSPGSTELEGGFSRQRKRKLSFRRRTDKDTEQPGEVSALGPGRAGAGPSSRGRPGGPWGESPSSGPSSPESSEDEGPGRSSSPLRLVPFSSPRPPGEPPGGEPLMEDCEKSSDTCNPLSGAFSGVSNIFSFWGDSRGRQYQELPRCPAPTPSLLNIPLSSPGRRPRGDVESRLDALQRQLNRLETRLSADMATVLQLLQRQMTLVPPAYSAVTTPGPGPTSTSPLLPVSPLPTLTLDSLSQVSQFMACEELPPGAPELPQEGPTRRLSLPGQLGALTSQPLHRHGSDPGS
One number for each entry, in %.

Example molecules with recorded inhibition at 2 h, 30 µM:
O=C(Nc1ccc(C2CCC3(CC2)CC(C(=O)O)C3)cc1)c1nnc(Nc2ccc(F)c(F)c2)o1 (stereo not drawn)
16
O=C(Nc1ccc(N2CCC3(CC2)CC(C(=O)O)C3)nc1)c1nnc(Nc2ccc(F)c(F)c2)o1
22

Proceed to the following item.
# inhibition at 2 h, 30 µM of O=C(O)CC1CCC2(CC1)CCC(c1ccc(NC(=O)c3nnc(Nc4ccc(F)c(F)c4)o3)cn1)CC2 (stereo not drawn) = 26

----------
biological target: CYP2C9 (Homo sapiens, UniProt P11712); test: Inhibition of recombinant human CYP2C9 at 25 uM by fluorescence plate reader analysis; assay type: ADME
Sequence (P11712 whole entry): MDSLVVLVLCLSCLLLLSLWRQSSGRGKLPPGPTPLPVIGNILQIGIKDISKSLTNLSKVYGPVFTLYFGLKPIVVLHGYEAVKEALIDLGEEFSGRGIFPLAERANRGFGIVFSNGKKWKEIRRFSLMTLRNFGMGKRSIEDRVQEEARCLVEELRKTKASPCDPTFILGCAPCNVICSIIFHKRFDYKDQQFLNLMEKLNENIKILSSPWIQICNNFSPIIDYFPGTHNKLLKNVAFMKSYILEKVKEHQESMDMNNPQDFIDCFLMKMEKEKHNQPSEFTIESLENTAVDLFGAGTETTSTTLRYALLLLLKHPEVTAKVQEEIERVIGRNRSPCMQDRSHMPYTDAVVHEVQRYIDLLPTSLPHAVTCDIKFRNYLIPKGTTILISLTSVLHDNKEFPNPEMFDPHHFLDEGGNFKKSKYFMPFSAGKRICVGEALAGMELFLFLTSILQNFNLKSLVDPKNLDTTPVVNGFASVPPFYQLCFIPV
metric: inhibition at 25 µM (%)
Numbers only, in %.

# inhibition at 25 µM of O=C(Nc1ccc(C2CCC3(CC2)CC(C(=O)O)C3)cc1)c1nnc(Nc2ccc(F)c(F)c2)o1 (stereo unspecified) = 24

----------
Could you please report measured Tmax for the items listed next?
test: Tmax in C57BL/6 mouse at 3 mg/kg, iv or 10 mg/kg, po and measured up to 24 hrs by LC-MS/MS analysis; format: ADME, organism-based; conditions: in vivo
Answers are plain numbers, in min.

Example molecules with recorded Tmax:
O=C(O)CC1CCC2(CC1)CCN(c1ccc(NC(=O)c3nnc(Nc4ccc(F)c(F)c4)o3)cn1)CC2
15
O=C(O)CC1CCC2(CC1)CCC(c1ccc(NC(=O)c3nnc(Nc4ccc(F)c(F)c4)o3)cn1)CC2 (stereo not drawn)
30

# Tmax of O=C(Nc1ccc(C2CCC3(CC2)CC(C(=O)O)C3)cc1)c1nnc(Nc2ccc(F)c(F)c2)o1 (stereo not drawn) = 15
